The measured values listed here are drawn from ChEMBL document CHEMBL4043133.

Test: Permeability of the compound at pH 7.4 at 10 umol/L after 3 hrs by PAMPA
Assay type: physicochemical
Details: PAMPA, pH 7.4; read-out: permeability
Mark satisfied for reported Papp at 3 h, 10 µM of 20 ×10⁻⁶ cm/s or greater; mark not satisfied for anything smaller.

{"ENTRY SMILES": "O=c1[nH]c2ccc(Nc3cc(NCc4cccnc4)c([N+](=O)[O-])cc3Cl)cc2[nH]1", "LABEL VALUE": "not satisfied"}

Kindly determine if Papp at 3 h, 10 µM recorded for "O=c1[nH]c2ccc(Nc3cc(OC4CCOCC4)c([N+](=O)[O-])cc3Cl)cc2[nH]1" is above or exactly 20 ×10⁻⁶ cm/s.
not satisfied

Kindly determine if Papp at 3 h, 10 µM recorded for "O=c1[nH]c2ccc(Nc3cc(NC4CCOCC4)c([N+](=O)[O-])cc3Cl)cc2[nH]1" is above or exactly 20 ×10⁻⁶ cm/s.
not satisfied

# check: Papp at 3 h, 10 µM of "CCOC(=O)CCNc1cc(Nc2ccc3[nH]c(=O)[nH]c3c2)c(Cl)cc1[N+](=O)[O-]" is greater than or equal to 20 ×10⁻⁶ cm/s
not satisfied

Dear colleague, could you confirm whether "O=C1Cc2cc(Nc3cc(OC4CCOCC4)c([N+](=O)[O-])cc3Cl)ccc2N1" has Papp at 3 h, 10 µM at or above 20 ×10⁻⁶ cm/s?
satisfied

Hi team, for "O=C1CCc2cc(Nc3cc(OC4CCOCC4)c([N+](=O)[O-])cc3Cl)ccc2N1" , is the recorded Papp at 3 h, 10 µM at or above 20 ×10⁻⁶ cm/s?
satisfied

----------
Test: Oral bioavailability in mouse at 1 mg/kg administered as cassette dosing
Format: ADME, organism-based
Details: in vivo
PROPERTY LABEL: bioavailability (%)
Enter your answer as a number in %; do not include the unit.

Determine from records and report bioavailability for "O=C1CCc2cc(Nc3cc(OC4CCOCC4)c([N+](=O)[O-])cc3Cl)ccc2N1"
79.9

----------
Assay: AUC in mouse at 1 mg/kg, po administered as cassette dosing
Assay type: ADME, organism-based
Conditions: in vivo
PROPERTY LABEL: AUC (ng·h/mL)
Note: unit ng·h/mL is implicit; provide only the numeric part.

Fill in reported AUC for this entry: "O=C1CCc2cc(Nc3cc(OC4CCOCC4)c([N+](=O)[O-])cc3Cl)ccc2N1"
1270

----------
Assay: Tmax in mouse at 1 mg/kg, po administered as cassette dosing
Format: ADME, organism-based
Conditions: in vivo
PROPERTY LABEL: Tmax (h)
I only need the number, in h, no unit after it.

Supply measured Tmax of "O=C1CCc2cc(Nc3cc(OC4CCOCC4)c([N+](=O)[O-])cc3Cl)ccc2N1" in your reply.
2

----------
Assay: Cmax in mouse at 1 mg/kg, po administered as cassette dosing
Format: ADME, organism-based
Design: dose 1 mg/kg, route oral
Details: in vivo
PROPERTY LABEL: Cmax (ng/mL)
Response body: numeric value in ng/mL, unit text excluded.

Write down Cmax measured for item "O=C1CCc2cc(Nc3cc(OC4CCOCC4)c([N+](=O)[O-])cc3Cl)ccc2N1"
233
